The origin of these recorded values is the NIST ThermoML archive (doi:10.1021/je200757a).

condition.parameters: 303.15 K; 101 kPa; Liquid; Vibrating tube method
measure.name: mass density (kg/m3)
// return numeric value only (unit: kg/m3, not printed)

{"columns": ["molecule", "value.unit", "mass density"],
 "data": [
  ["CCCCCCCCCCCC", "kg/m3", 741.4],
  ["CCCCCCCCC", "kg/m3", 710],
  ["C1C[C@@H]2[C@H]3CC[C@H](C3)[C@@H]2C1 [exo-tetrahydrodicyclopentadiene]", "kg/m3", 927.5]
]}

As a next step, examine the molecule that follows.
Annotate the molecule CCCCCCCCCCCCC with its measured mass density.
749.3

###

condition.parameters: 298.15 K; 101 kPa; Liquid; Capillary tube (Ostwald / Ubbelohde) method
Numbers after ± are expanded uncertainties.
measure.name: viscosity

Examples from the recorded data:
{"columns": ["molecule", "viscosity"],
 "data": [
  ["CCCCCCCCCCCCC [tridecane]", "1.726 ± 0.013 mPa·s"],
  ["CCCCCCCCCCCC [dodecane]", "1.377 ± 0.011 mPa·s"],
  ["CCCCCCCCC [nonane]", "0.687 ± 0.006 mPa·s"]
]}

Annotate the molecule C1C[C@@H]2[C@H]3CC[C@H](C3)[C@@H]2C1 [exo-tetrahydrodicyclopentadiene] with its measured viscosity.
2.784 ± 0.032 mPa·s

###

condition.parameters: 303.15 K; 101 kPa; Liquid; Capillary tube (Ostwald / Ubbelohde) method
measure.name: viscosity (mPa·s)
// return numeric value only (unit: mPa·s, not printed)

{"columns": ["molecule", "viscosity, mPa·s"],
 "data": [
  ["CCCCCCCCC [nonane]", 0.647],
  ["C1C[C@@H]2[C@H]3CC[C@H](C3)[C@@H]2C1 [exo-tetrahydrodicyclopentadiene]", 2.525],
  ["CCCCCCCCCCCCC [tridecane]", 1.577]
]}

As a next step, examine the molecule that follows.
Annotate the molecule CCCCCCCCCCCC [dodecane] with its measured viscosity.
1.266

###

condition.parameters: 313.15 K; 101 kPa; Liquid; Capillary tube (Ostwald / Ubbelohde) method
Recorded viscosity for the following compounds
// return numeric value only (unit: mPa·s, not printed)

{"columns": ["compound", "value.unit", "viscosity"],
 "data": [
  ["CCCCCCCCCCCCC", "mPa·s", 1.325],
  ["CCCCCCCCC", "mPa·s", 0.579],
  ["CCCCCCCCCCCC", "mPa·s", 1.084]
]}

As a next step, examine the compound that follows.
Annotate the compound C1C[C@@H]2[C@H]3CC[C@H](C3)[C@@H]2C1 [exo-tetrahydrodicyclopentadiene] with its measured viscosity.
2.112

###

condition.parameters: 293.15 K; 101 kPa; Liquid; Vibrating tube method
Recorded mass density for the following compounds
// return numeric value only (unit: kg/m3, not printed)

Annotate the compound CCCCCCCCCCCC with its measured mass density.
748.6

Annotate the compound CCCCCCCCCCCCC with its measured mass density.
756.5

Annotate the compound C1C[C@@H]2[C@H]3CC[C@H](C3)[C@@H]2C1 [exo-tetrahydrodicyclopentadiene] with its measured mass density.
935.3

Annotate the compound CCCCCCCCC with its measured mass density.
717.8

###

assay.overview: refractive index (Na D-line) (dimensionless)
condition.parameters: 303.15 K; 101.33 kPa; Liquid
Recorded refractive index for the following compounds
Just the number, please, no unit attached.

Examples from the recorded data:
{"columns": ["compound", "measure.name", "observed"],
 "data": [
  ["CCCCCCCCCCCCC", "refractive index", 1.4213],
  ["CCCCCCCCCCCC", "refractive index", 1.4168],
  ["CCCCCCCCC", "refractive index", 1.4001]
]}

As a next step, examine the compound that follows.
Annotate the compound C1C[C@@H]2[C@H]3CC[C@H](C3)[C@@H]2C1 [exo-tetrahydrodicyclopentadiene] with its measured refractive index.
1.4832

###

condition.parameters: 298.15 K; 101 kPa; Liquid; Vibrating tube method
measure.name: mass density (kg/m3)
// return numeric value only (unit: kg/m3, not printed)

Examples from the recorded data:
{"columns": ["molecule", "value.unit", "mass density"],
 "data": [
  ["CCCCCCCCC", "kg/m3", 713.9],
  ["C1C[C@@H]2[C@H]3CC[C@H](C3)[C@@H]2C1 [exo-tetrahydrodicyclopentadiene]", "kg/m3", 931.4],
  ["CCCCCCCCCCCCC", "kg/m3", 752.9]
]}

As a next step, examine the molecule that follows.
Annotate the molecule CCCCCCCCCCCC with its measured mass density.
745

###

Recorded viscosity for the following compounds
condition.parameters: 293.15 K; 101 kPa; Liquid; Capillary tube (Ostwald / Ubbelohde) method
// return numeric value only (unit: mPa·s, not printed)

Examples from the recorded data:
{"columns": ["compound", "observed"],
 "data": [
  ["CCCCCCCCC", 0.733],
  ["CCCCCCCCCCCCC", 1.894],
  ["C1C[C@@H]2[C@H]3CC[C@H](C3)[C@@H]2C1 [exo-tetrahydrodicyclopentadiene]", 3.077]
]}

As a next step, examine the compound that follows.
Annotate the compound CCCCCCCCCCCC with its measured viscosity.
1.507

###

assay.overview: refractive index (Na D-line) (dimensionless)
condition.parameters: 293.15 K; 101.33 kPa; Liquid
Recorded refractive index for the following compounds
Just the number, please, no unit attached.

Examples from the recorded data:
{"columns": ["compound", "refractive index"],
 "data": [
  ["CCCCCCCCC", 1.4048],
  ["CCCCCCCCCCCCC", 1.4253],
  ["C1C[C@@H]2[C@H]3CC[C@H](C3)[C@@H]2C1 [exo-tetrahydrodicyclopentadiene]", 1.4877]
]}

As a next step, examine the compound that follows.
Annotate the compound CCCCCCCCCCCC with its measured refractive index.
1.4219

###

Recorded mass density for the following compounds
condition.parameters: 313.15 K; 101 kPa; Liquid; Vibrating tube method
// return numeric value only (unit: kg/m3, not printed)

Examples from the recorded data:
{"columns": ["compound", "value.unit", "mass density"],
 "data": [
  ["CCCCCCCCC [nonane]", "kg/m3", 702.1],
  ["CCCCCCCCCCCCC [tridecane]", "kg/m3", 742.2],
  ["C1C[C@@H]2[C@H]3CC[C@H](C3)[C@@H]2C1 [exo-tetrahydrodicyclopentadiene]", "kg/m3", 919.6]
]}

Annotate the compound CCCCCCCCCCCC [dodecane] with its measured mass density.
734.1
